// provenance: patent US20120263784A1

# testName: in vivo
# condition: rat, po
measureName: Cmax (ng/mL)
Answers are plain numbers, in ng/mL.

GET /values?readout=Cmax&item= C#C[C@]1(O)CC[C@H]2[C@@H]3CCC4=CC(=O)CC[C@@H]4[C@H]3CC[C@@]21CC
14.4

====

# testName: in vivo
# condition: rat, po, 10 ug
measureName: Cmax (ng/mL)
Answers are plain numbers, in ng/mL.

Can you look up the measured Cmax of C#C[C@]1(O)CC[C@H]2[C@@H]3CCC4=CC(=O)CC[C@@H]4[C@H]3CC[C@@]21CC [levonorgestrel] for me?
14.4
